- Test details: Drug interaction study: whole blood pharmacokinetics of temsirolimus and sirolimus after single 5-mg i.v. temsirolimus alone or with oral ketoconazole
- Assay type: in vivo, human
- Condition info: human, whole blood, intravenous, single 5 mg i.v. temsirolimus + ketoconazole 400 mg oral; whole blood; mean (CV); read-out: Vss
- Procedure: In this open-label, non-randomised, single-centre, two-period, sequential study, subjects received temsirolimus (Torisel™; Wyeth Pharmaceuticals, Philadelphia, PA, USA) alone, followed by temsirolimus in combination with ketoconazole after a 14-day washout period. […] Pharmacokinetic parameters for temsirolimus were analysed for each subject for each study period using non-compartmental methods ([Jusko, 1992]). […] The terminal elimination half-life (T1/2) was calculated as 0.693/λz. […]

Compound: CO[C@H]1C[C@@H]2CC[C@@H](C)[C@@](O)(O2)C(=O)C(=O)N2CCCC[C@H]2C(=O)O[C@H]([C@H](C)C[C@@H]2CC[C@@H](OC(=O)C(C)(CO)CO)[C@H](OC)C2)CC(=O)[C@H](C)/C=C(\C)[C@@H](O)[C@@H](OC)C(=O)[C@H](C)C[C@H](C)/C=C/C=C/C=C/1C [Temsirolimus]
Vd, L: 92

###

- Test details: Drug interaction study: whole blood pharmacokinetics of temsirolimus and sirolimus after single 5-mg i.v. temsirolimus alone or with oral ketoconazole
- Format: in vivo, human
- Condition info: human, whole blood, intravenous, metabolite sirolimus; single 5 mg i.v. temsirolimus + ketoconazole 400 mg oral; whole blood; mean (CV); read-out: Vz/fm

Entry smiles: CO[C@H]1C[C@@H]2CC[C@@H](C)[C@@](O)(O2)C(=O)C(=O)N2CCCC[C@H]2C(=O)O[C@H]([C@H](C)C[C@@H]2CC[C@@H](O)[C@H](OC)C2)CC(=O)[C@H](C)/C=C(\C)[C@@H](O)[C@@H](OC)C(=O)[C@H](C)C[C@H](C)/C=C/C=C/C=C/1C
Vd: 220 L

###

- Test details: Drug interaction study: whole blood pharmacokinetics of temsirolimus and sirolimus after single 5-mg i.v. temsirolimus alone or with oral ketoconazole
- Format: in vivo, human
- Condition info: human, whole blood, iv, 5 mg, single 5 mg i.v. temsirolimus alone; whole blood; mean (CV); read-out: Vss

Entry smiles: CO[C@H]1C[C@@H]2CC[C@@H](C)[C@@](O)(O2)C(=O)C(=O)N2CCCC[C@H]2C(=O)O[C@H]([C@H](C)C[C@@H]2CC[C@@H](OC(=O)C(C)(CO)CO)[C@H](OC)C2)CC(=O)[C@H](C)/C=C(\C)[C@@H](O)[C@@H](OC)C(=O)[C@H](C)C[C@H](C)/C=C/C=C/C=C/1C
Vd, L: 87

###

- Test details: Drug interaction study: whole blood pharmacokinetics of temsirolimus and sirolimus after single 5-mg i.v. temsirolimus alone or with oral ketoconazole
- Format: in vivo, human
- Condition info: human, whole blood, iv, 5 mg, single 5 mg i.v. temsirolimus alone; mean (CV)
compounds and their reported half-life
Readout: half-life (h)

Compound: CO[C@H]1C[C@@H]2CC[C@@H](C)[C@@](O)(O2)C(=O)C(=O)N2CCCC[C@H]2C(=O)O[C@H]([C@H](C)C[C@@H]2CC[C@@H](OC(=O)C(C)(CO)CO)[C@H](OC)C2)CC(=O)[C@H](C)/C=C(\C)[C@@H](O)[C@@H](OC)C(=O)[C@H](C)C[C@H](C)/C=C/C=C/C=C/1C [Temsirolimus]
Units text: h
Reported value: 22.3
--
Compound: CO[C@H]1C[C@@H]2CC[C@@H](C)[C@@](O)(O2)C(=O)C(=O)N2CCCC[C@H]2C(=O)O[C@H]([C@H](C)C[C@@H]2CC[C@@H](O)[C@H](OC)C2)CC(=O)[C@H](C)/C=C(\C)[C@@H](O)[C@@H](OC)C(=O)[C@H](C)C[C@H](C)/C=C/C=C/C=C/1C [Sirolimus]
Units text: h
Reported value: 75

###

- Test details: Drug interaction study: whole blood pharmacokinetics of temsirolimus and sirolimus after single 5-mg i.v. temsirolimus alone or with oral ketoconazole
- Format: in vivo, human
- Condition info: human, whole blood, iv, 5 mg, metabolite sirolimus; single 5 mg i.v. temsirolimus alone; whole blood; mean (CV); read-out: Vz/fm

Compound: CO[C@H]1C[C@@H]2CC[C@@H](C)[C@@](O)(O2)C(=O)C(=O)N2CCCC[C@H]2C(=O)O[C@H]([C@H](C)C[C@@H]2CC[C@@H](O)[C@H](OC)C2)CC(=O)[C@H](C)/C=C(\C)[C@@H](O)[C@@H](OC)C(=O)[C@H](C)C[C@H](C)/C=C/C=C/C=C/1C [Sirolimus]
Units text: L
Vd: 480

###

- Test details: Drug interaction study: whole blood pharmacokinetics of temsirolimus and sirolimus after single 5-mg i.v. temsirolimus alone or with oral ketoconazole
- Format: in vivo, human
- Condition info: human, intravenous; single 5 mg i.v. temsirolimus + ketoconazole 400 mg oral; whole blood; healthy subjects; mean (CV)

Entry smiles: CO[C@H]1C[C@@H]2CC[C@@H](C)[C@@](O)(O2)C(=O)C(=O)N2CCCC[C@H]2C(=O)O[C@H]([C@H](C)C[C@@H]2CC[C@@H](OC(=O)C(C)(CO)CO)[C@H](OC)C2)CC(=O)[C@H](C)/C=C(\C)[C@@H](O)[C@@H](OC)C(=O)[C@H](C)C[C@H](C)/C=C/C=C/C=C/1C
Cmax / ng/mL: 263

Entry smiles: CO[C@H]1C[C@@H]2CC[C@@H](C)[C@@](O)(O2)C(=O)C(=O)N2CCCC[C@H]2C(=O)O[C@H]([C@H](C)C[C@@H]2CC[C@@H](O)[C@H](OC)C2)CC(=O)[C@H](C)/C=C(\C)[C@@H](O)[C@@H](OC)C(=O)[C@H](C)C[C@H](C)/C=C/C=C/C=C/1C
Cmax / ng/mL: 29

###

- Test details: Drug interaction study: whole blood pharmacokinetics of temsirolimus and sirolimus after single 5-mg i.v. temsirolimus alone or with oral ketoconazole
- Type: in vivo, human
- Condition info: human, whole blood, intravenous, single 5 mg i.v. temsirolimus + ketoconazole 400 mg oral; whole blood; mean (CV)

Entry smiles: CO[C@H]1C[C@@H]2CC[C@@H](C)[C@@](O)(O2)C(=O)C(=O)N2CCCC[C@H]2C(=O)O[C@H]([C@H](C)C[C@@H]2CC[C@@H](OC(=O)C(C)(CO)CO)[C@H](OC)C2)CC(=O)[C@H](C)/C=C(\C)[C@@H](O)[C@@H](OC)C(=O)[C@H](C)C[C@H](C)/C=C/C=C/C=C/1C
clearance [mL/min]: 85.7

###

- Test details: Drug interaction study: whole blood pharmacokinetics of temsirolimus and sirolimus after single 5-mg i.v. temsirolimus alone or with oral ketoconazole
- Format: in vivo, human
- Condition info: human, whole blood, intravenous, single 5 mg i.v. temsirolimus + ketoconazole 400 mg oral; whole blood; mean (CV)
compounds and their reported half-life
Readout: half-life

Compound: CO[C@H]1C[C@@H]2CC[C@@H](C)[C@@](O)(O2)C(=O)C(=O)N2CCCC[C@H]2C(=O)O[C@H]([C@H](C)C[C@@H]2CC[C@@H](O)[C@H](OC)C2)CC(=O)[C@H](C)/C=C(\C)[C@@H](O)[C@@H](OC)C(=O)[C@H](C)C[C@H](C)/C=C/C=C/C=C/1C [Sirolimus]
Reported value: 113 h
//
Compound: CO[C@H]1C[C@@H]2CC[C@@H](C)[C@@](O)(O2)C(=O)C(=O)N2CCCC[C@H]2C(=O)O[C@H]([C@H](C)C[C@@H]2CC[C@@H](OC(=O)C(C)(CO)CO)[C@H](OC)C2)CC(=O)[C@H](C)/C=C(\C)[C@@H](O)[C@@H](OC)C(=O)[C@H](C)C[C@H](C)/C=C/C=C/C=C/1C [Temsirolimus]
Reported value: 23.7 h

###

- Test details: Drug interaction study: whole blood pharmacokinetics of temsirolimus and sirolimus after single 5-mg i.v. temsirolimus alone or with oral ketoconazole
- Type: in vivo, human
- Condition info: human, whole blood, intravenous, single 5 mg i.v. temsirolimus + ketoconazole 400 mg oral; whole blood; mean (CV); read-out: Vz
Readout: Vd

Compound: CO[C@H]1C[C@@H]2CC[C@@H](C)[C@@](O)(O2)C(=O)C(=O)N2CCCC[C@H]2C(=O)O[C@H]([C@H](C)C[C@@H]2CC[C@@H](OC(=O)C(C)(CO)CO)[C@H](OC)C2)CC(=O)[C@H](C)/C=C(\C)[C@@H](O)[C@@H](OC)C(=O)[C@H](C)C[C@H](C)/C=C/C=C/C=C/1C [Temsirolimus]
Reported value: 174 L

###

compounds and their reported Cmax
- Test details: Drug interaction study: whole blood pharmacokinetics of temsirolimus and sirolimus after single 5-mg i.v. temsirolimus alone or with oral ketoconazole
- Type: in vivo, human
- Condition info: human, iv; single 5 mg i.v. temsirolimus alone; whole blood; healthy subjects; mean (CV)
- Protocol: In this open-label, non-randomised, single-centre, two-period, sequential study, subjects received temsirolimus (Torisel™; Wyeth Pharmaceuticals, Philadelphia, PA, USA) alone, followed by temsirolimus in combination with ketoconazole after a 14-day washout period. […] Pharmacokinetic parameters for temsirolimus were analysed for each subject for each study period using non-compartmental methods ([Jusko, 1992]). […] The terminal elimination half-life (T1/2) was calculated as 0.693/λz. […]

Compound: CO[C@H]1C[C@@H]2CC[C@@H](C)[C@@](O)(O2)C(=O)C(=O)N2CCCC[C@H]2C(=O)O[C@H]([C@H](C)C[C@@H]2CC[C@@H](O)[C@H](OC)C2)CC(=O)[C@H](C)/C=C(\C)[C@@H](O)[C@@H](OC)C(=O)[C@H](C)C[C@H](C)/C=C/C=C/C=C/1C [Sirolimus]
Units text: ng/mL
Cmax: 13.3
//
Compound: CO[C@H]1C[C@@H]2CC[C@@H](C)[C@@](O)(O2)C(=O)C(=O)N2CCCC[C@H]2C(=O)O[C@H]([C@H](C)C[C@@H]2CC[C@@H](OC(=O)C(C)(CO)CO)[C@H](OC)C2)CC(=O)[C@H](C)/C=C(\C)[C@@H](O)[C@@H](OC)C(=O)[C@H](C)C[C@H](C)/C=C/C=C/C=C/1C [Temsirolimus]
Units text: ng/mL
Cmax: 278
